So I've got a bunch of substances here, and I need their pEC50 values.
target_of_assay: MrgX2 (Homo sapiens, UniProt Q96LB1)
Construct: expressed in transfected cells; host or cells: HEK293T
Sequence (Q96LB1 whole entry): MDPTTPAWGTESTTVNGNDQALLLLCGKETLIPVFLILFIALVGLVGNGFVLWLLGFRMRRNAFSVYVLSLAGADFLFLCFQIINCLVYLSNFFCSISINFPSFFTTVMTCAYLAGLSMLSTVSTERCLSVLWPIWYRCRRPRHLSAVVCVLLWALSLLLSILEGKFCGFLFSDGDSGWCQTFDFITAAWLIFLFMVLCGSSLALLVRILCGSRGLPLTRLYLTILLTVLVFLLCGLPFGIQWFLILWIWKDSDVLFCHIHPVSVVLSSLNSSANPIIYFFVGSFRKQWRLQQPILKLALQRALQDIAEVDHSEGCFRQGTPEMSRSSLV
experimental_details: β-arrestin-2 recruitment to MrgX2, NanoBiT in HEK cells
Type: cell-based
Where no end group is shown, it is not given here.
Numbers only, as −log10 of the molar value.

Examples with answers:
substance=FRKRWNKWALSR-NH2 endpoint_result=5.72
substance=FRKKWNKWALFR-NH2 endpoint_result=6.68

I'm hoping you can list pEC50 for every substance here, please.
1. FRKKWNKWGLSR-NH2
2. RKKWNKWALSR-NH2 [- RKKWNKWALSR]
3. FRKKWDKWALSR-NH2
4. FKKKWNKWALSR-NH2
5. FRRKWNKWALSR-NH2
6. FRKKWNKYALSR-NH2

Result:
1: 5.96; 2: 5.68; 3: 6.32; 4: 5.84; 5: 5.56; 6: 6.13

I'm hoping you can list pEC50 for every substance here, please.
1. FRKKWNKWALTR-NH2
2. DVASEFRKKWNKWALSR-NH2 [PAMP 4-20]
3. FRKKWNKWFLSR-NH2

Result:
6.57
5.48
6.38
